target: Ferroportin (Homo sapiens); experiment: Inhibition of human hepcidin-stimulated recombinant C-terminal Halo-tagged human FPN internalization in MDCK cells incubated for 15 to 20 mins by Halo-tagged TMR based fluorescence assay
Sequence (Q9NP59 whole entry, looked up): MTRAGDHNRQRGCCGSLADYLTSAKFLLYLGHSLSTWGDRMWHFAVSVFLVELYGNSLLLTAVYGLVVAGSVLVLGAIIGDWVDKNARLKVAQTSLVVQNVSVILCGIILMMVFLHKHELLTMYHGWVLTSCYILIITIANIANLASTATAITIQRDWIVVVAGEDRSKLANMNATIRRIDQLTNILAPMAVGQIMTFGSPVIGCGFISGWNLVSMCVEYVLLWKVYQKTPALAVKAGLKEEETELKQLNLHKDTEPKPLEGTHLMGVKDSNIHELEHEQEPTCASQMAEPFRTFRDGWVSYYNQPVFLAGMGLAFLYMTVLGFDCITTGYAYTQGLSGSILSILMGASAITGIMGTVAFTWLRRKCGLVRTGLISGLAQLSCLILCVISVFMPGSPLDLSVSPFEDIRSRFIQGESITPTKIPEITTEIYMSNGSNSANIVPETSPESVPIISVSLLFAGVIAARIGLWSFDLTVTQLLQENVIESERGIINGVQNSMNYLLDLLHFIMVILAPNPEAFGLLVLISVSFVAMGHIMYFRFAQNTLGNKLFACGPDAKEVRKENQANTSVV
pIC50: −log10 of the molar value.
Parameter pIC50: see the listing below.
Assay Readout: pIC50

> print(dat)
                                   compound               target.system  test.result
1  Fc1ccc(C(CN2CCN(c3cnccn3)CC2)NCc2ccccc2)cc1 (stereo unspecified)  Ferroportin (Homo sapiens)       < 4.30
2  Fc1ccc(C(CN2CCN(c3ccccc3)CC2)NCc2ccccn2)cc1 (stereo unspecified)  Ferroportin (Homo sapiens)       < 4.00
3  Fc1ccc(C(CN2CCN(c3cnccn3)CC2)NCc2ccccn2)cc1 (stereo unspecified)  Ferroportin (Homo sapiens)       > 4.30
4  NC(CN1CCN(c2cnccn2)CC1)c1ccc(F)cc1 (stereo unspecified)  Ferroportin (Homo sapiens)       < 4.00
5  COCCCN1CCN(C(CN2CCC(N3CCCCC3)CC2)c2ccccc2)CC1 (stereo unspecified)  Ferroportin (Homo sapiens)       > 4.30
6  c1ccc(C(CN2CCC(N3CCCCC3)CC2)N2CCN(CCn3ccnc3)CC2)cc1 (stereo unspecified)  Ferroportin (Homo sapiens)       < 4.00

###

molecular target: Ferroportin (Homo sapiens); assay: Inhibition of human hepcidin-stimulated recombinant C-terminal Halo-tagged human FPN internalization in MDCK cells incubated for 15 to 20 mins by Halo-tagged TMR based fluorescence assay
Assay Readout: IC50

> print(dat)
                                    compound               target.system  test.result
 1  O=C(C1CCCO1)N1CCN(CC(NCc2ccccc2)c2ccc(F)cc2)CC1 (stereo not drawn)  Ferroportin (Homo sapiens)     > 100 µM
 2  COCCNC(CN1CCN(C(=O)C2CCCO2)CC1)c1ccc(F)cc1 (stereo not drawn)  Ferroportin (Homo sapiens)     > 100 µM
 3  CC(C)N1CCN(C(CN2CCC(N3CCCCC3)CC2)c2ccccc2)CC1 (stereo not drawn)  Ferroportin (Homo sapiens)     > 100 µM
 4  COCCN1CCN(C(CN2CCC(N3CCCCC3)CC2)c2ccccc2)CC1 (stereo not drawn)  Ferroportin (Homo sapiens)      < 50 µM
 5  c1ccc(C(CN2CCN(c3cnccn3)CC2)NCc2ccccn2)cc1 (stereo not drawn)  Ferroportin (Homo sapiens)     > 100 µM
 6  COCCN1CCN(C(CN2CCC(N3CCCCC3)CC2)c2ccc(C)cc2)CC1 (stereo not drawn)  Ferroportin (Homo sapiens)      < 50 µM
 7  COCCN1CCN(C(CN2CCC(N(C)C)CC2)c2ccccc2)CC1 (stereo not drawn)  Ferroportin (Homo sapiens)      < 50 µM
 8  COCCN1CCN(C(CN2CCC(NC(=O)c3ccccc3)CC2)c2ccccc2)CC1 (stereo not drawn)  Ferroportin (Homo sapiens)     > 100 µM
 9  O=C(c1ccccn1)N1CCN(CC(NCc2ccccn2)c2ccc(F)cc2)CC1 (stereo not drawn)  Ferroportin (Homo sapiens)     > 100 µM
10  c1ccc(C(CN2CCC(N3CCCCC3)CC2)N2CCN(c3cnccn3)CC2)cc1 (stereo not drawn)  Ferroportin (Homo sapiens)     > 100 µM
11  COCCN1CCN(C(CN2CCC(NC3CCCC3)CC2)c2ccccc2)CC1 (stereo not drawn)  Ferroportin (Homo sapiens)      < 50 µM
12  COCCN1CCN(C(CN2CCC(N3CCCCC3)CC2)c2ccc(F)cc2)CC1 (stereo not drawn)  Ferroportin (Homo sapiens)      < 50 µM
13  Fc1ccc(C(CN2CCN(c3ccccn3)CC2)NCc2ccccn2)cc1 (stereo not drawn)  Ferroportin (Homo sapiens)     > 100 µM
14  COCCN1CCN(C(CN2CCOCC2)c2ccccc2)CC1 (stereo not drawn)  Ferroportin (Homo sapiens)     > 100 µM
15  c1ccc(C(CN2CCC(N3CCCCC3)CC2)NCCN2CCOCC2)cc1 (stereo not drawn)  Ferroportin (Homo sapiens)     < 100 µM
16  COCCN1CCN(C(CN2CCC(NC(C)=O)CC2)c2ccccc2)CC1 (stereo not drawn)  Ferroportin (Homo sapiens)     < 100 µM
17  COCCN1CCN(C(CN2CCC(N3CCCCC3)CC2)c2cccc(OC)c2)CC1 (stereo not drawn)  Ferroportin (Homo sapiens)     < 100 µM
18  O=C(C1CCCO1)N1CCN(CC(NCc2cccs2)c2ccc(F)cc2)CC1 (stereo not drawn)  Ferroportin (Homo sapiens)     > 100 µM
19  O=C(C1CCCO1)N1CCN(CC(NCc2ccccc2)c2ccccc2)CC1 (stereo not drawn)  Ferroportin (Homo sapiens)     > 100 µM
20  COCCN1CCN(C(CN2CCC(N3CCCCC3)CC2)c2ccc(OC(C)C)cc2)CC1 (stereo not drawn)  Ferroportin (Homo sapiens)     > 100 µM
21  CCOc1ccc(C(CN2CCC(N3CCCCC3)CC2)N2CCN(CCOC)CC2)cc1 (stereo not drawn)  Ferroportin (Homo sapiens)     > 100 µM
22  c1ccc(CNC(CN2CCN(c3cnccn3)CC2)c2ccncc2)nc1 (stereo not drawn)  Ferroportin (Homo sapiens)     > 100 µM
23  COCCN1CCN(C(CN2CCC(N3CCOCC3)CC2)c2ccccc2)CC1 (stereo not drawn)  Ferroportin (Homo sapiens)      < 50 µM
24  CCN(CC)C1CCN(CC(c2ccccc2)N2CCN(CCOC)CC2)CC1 (stereo not drawn)  Ferroportin (Homo sapiens)      < 50 µM
25  CCOCCN1CCN(C(CN2CCC(N3CCCCC3)CC2)c2ccccc2)CC1 (stereo not drawn)  Ferroportin (Homo sapiens)      < 50 µM
26  COCCN1CCN(C(CN2CCC(N3CCN(C)CC3)CC2)c2ccccc2)CC1 (stereo not drawn)  Ferroportin (Homo sapiens)     > 100 µM
27  COCCN1CCN(C(CN2CCC(N3CCC(C)CC3)CC2)c2ccccc2)CC1 (stereo not drawn)  Ferroportin (Homo sapiens)     < 100 µM
28  COCCN1CCN(C(CN2CCC(N3CCCCC3)CC2)c2ccc(C#N)cc2)CC1 (stereo not drawn)  Ferroportin (Homo sapiens)      < 50 µM
29  COc1ccccc1C(=O)N1CCN(CC(NCc2ccccn2)c2ccc(F)cc2)CC1 (stereo not drawn)  Ferroportin (Homo sapiens)      < 50 µM
30  COCCN1CCN(C(CN2CCN(c3ccccc3)CC2)c2ccccc2)CC1 (stereo not drawn)  Ferroportin (Homo sapiens)     > 100 µM
31  Clc1ccc(C(CN2CCN(c3cnccn3)CC2)NCc2ccccn2)cc1 (stereo not drawn)  Ferroportin (Homo sapiens)     > 100 µM
32  COCCN1CCN(C(CN2CCC(N3CCCC3)CC2)c2ccccc2)CC1 (stereo not drawn)  Ferroportin (Homo sapiens)      < 50 µM
33  COCCN1CCN(C(CN2CCC(Nc3ccccc3)CC2)c2ccccc2)CC1 (stereo not drawn)  Ferroportin (Homo sapiens)     > 100 µM
34  c1ccc(C(CN2CCC(N3CCCCC3)CC2)N2CCN(c3ccccn3)CC2)cc1 (stereo not drawn)  Ferroportin (Homo sapiens)     > 100 µM
35  COCCN1CCN(C(CN2CCC(NC(=O)C3CCCCC3)CC2)c2ccccc2)CC1 (stereo not drawn)  Ferroportin (Homo sapiens)      < 50 µM
36  COCCN1CCN(C(CN2CCC(N3CCCCC3)CC2)c2ccc(OC)cc2)CC1 (stereo not drawn)  Ferroportin (Homo sapiens)      < 50 µM
37  c1ccc(C(CN2CCC(N3CCCCC3)CC2)N2CCN(CC3CCCO3)CC2)cc1 (stereo not drawn)  Ferroportin (Homo sapiens)      < 50 µM
38  CC(=O)N1CCN(CC(NCc2ccccn2)c2ccc(F)cc2)CC1 (stereo not drawn)  Ferroportin (Homo sapiens)     > 100 µM
39  CN(CCN(C)c1cnccn1)CC(NCc1ccccn1)c1ccc(F)cc1 (stereo not drawn)  Ferroportin (Homo sapiens)      < 50 µM
40  COCCN1CCN(C(CN2CCC(N3CCCCC3)CC2)c2ccc(C(F)(F)F)cc2)CC1 (stereo not drawn)  Ferroportin (Homo sapiens)      < 50 µM
41  CCN(CC)CCN1CCN(C(CN2CCC(N3CCCCC3)CC2)c2ccccc2)CC1 (stereo not drawn)  Ferroportin (Homo sapiens)     > 100 µM
42  CNC(=O)C1CCN(CC(c2ccccc2)N2CCN(CCOC)CC2)CC1 (stereo not drawn)  Ferroportin (Homo sapiens)     < 100 µM
43  COCCN1CCN(C(CN2CCC(NC(=O)C(C)C)CC2)c2ccccc2)CC1 (stereo not drawn)  Ferroportin (Homo sapiens)     < 100 µM
